Target: UniProt:P46098
Sequence (P46098 24-478): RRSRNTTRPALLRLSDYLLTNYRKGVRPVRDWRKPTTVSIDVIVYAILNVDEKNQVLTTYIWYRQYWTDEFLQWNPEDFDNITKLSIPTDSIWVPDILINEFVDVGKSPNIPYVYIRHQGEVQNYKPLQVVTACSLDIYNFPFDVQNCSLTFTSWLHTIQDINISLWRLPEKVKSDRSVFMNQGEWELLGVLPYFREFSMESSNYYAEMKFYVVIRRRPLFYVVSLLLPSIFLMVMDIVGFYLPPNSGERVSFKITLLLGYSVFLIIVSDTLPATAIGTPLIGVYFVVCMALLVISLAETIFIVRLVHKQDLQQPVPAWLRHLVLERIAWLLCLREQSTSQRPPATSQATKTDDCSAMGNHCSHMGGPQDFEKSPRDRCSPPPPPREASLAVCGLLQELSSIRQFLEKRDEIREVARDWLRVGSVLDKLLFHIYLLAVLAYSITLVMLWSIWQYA
pKd: −log10 of the molar value.
MEASURE: pKd

MOLECULE: Cc1[nH]cnc1CCC(=O)c1cn(C)c2ccccc12 [[3H]-GR65630]
TARGET UNDER TEST: UniProt:P46098
MEASURE: pKd
ENDPOINT RESULT: 9.09
